Data origin, for the record: ChEMBL document CHEMBL5356993

Tested on: SNB-19
Experiment: Antiproliferative activity against human SNB-19 cells assessed as cell growth inhibition at 10 uM incubated for 48 hrs by SRB assay relative to control
Format: functional
Settings: read-out: GI
Entries and their inhibition of growth at 10 µM
The reply should contain only the number, in %.

In the examples that follow, each entry is paired with its recorded inhibition of growth at 10 µM.
# compound string, inhibition of growth at 10 µM (%)
measured = [
    ("Cc1nc2c(cnn2-c2ccccc2)c(=O)n1-c1ccc(NC(=O)c2ccc(F)cc2)cc1", 19.6),
    ("Cc1nc2c(cnn2-c2ccccc2)c(=O)n1-c1ccc(/N=C2\\C(=O)Nc3ccccc32)cc1", 36),
]

Attention now shifts to the item below.
stdin: Look up and state reported inhibition of growth at 10 µM for COc1ccc(/C=C/C(=O)c2ccc(-n3c(C)nc4c(cnn4-c4ccccc4)c3=O)cc2)cc1
stdout: 18.2

====

Test system: IGROV-1
Test: Antiproliferative activity against human IGROV-1 cells assessed as cell growth inhibition at 10 uM incubated for 48 hrs by SRB assay relative to control
Type: functional
Conditions: read-out: GI
assay endpoint: inhibition of growth at 10 µM (%)
The reply should contain only the number, in %.

In the examples that follow, each entry is paired with its recorded inhibition of growth at 10 µM.
# compound string, unit annotation, reported
measured = [
    ("Cc1nc2c(cnn2-c2ccccc2)c(=O)n1-c1ccc(/N=C2\\C(=O)Nc3ccccc32)cc1", "%", 34.7),
    ("Cc1nc2c(cnn2-c2ccccc2)c(=O)n1-c1ccc(N)cc1", "%", 15),
    ("Cc1nc2c(cnn2-c2ccccc2)c(=O)n1-c1ccc(NC(=O)c2ccc(F)cc2)cc1", "%", 26.5),
    ("Cc1nc2c(cnn2-c2ccccc2)c(=O)n1-c1ccc(NC(=O)c2ccc([N+](=O)[O-])cc2)cc1", "%", 31.1),
    ("Cc1nc2c(cnn2-c2ccccc2)c(=O)n1-c1ccc(NC(=O)c2ccc(Cl)cc2)cc1", "%", 21.3),
]

stdin: # assay system IGROV-1: give inhibition of growth at 10 µM of Cc1ccc(C(=O)Nc2ccc(-n3c(C)nc4c(cnn4-c4ccccc4)c3=O)cc2)cc1
stdout: 28.4

====

Entries and their inhibition of growth at 10 µM
System: LOX IMVI
Experiment: Antiproliferative activity against human LOX IMVI cells assessed as cell growth inhibition at 10 uM incubated for 48 hrs by SRB assay relative to control
Assay type: functional
Conditions: read-out: GI
The reply should contain only the number, in %.

In the examples that follow, each entry is paired with its recorded inhibition of growth at 10 µM.
# compound string, unit annotation, inhibition of growth at 10 µM
records = [
    ("Cc1nc2c(cnn2-c2ccccc2)c(=O)n1-c1ccc(NC(=O)c2ccc(F)cc2)cc1", "%", 38.2),
    ("Cc1ccc(C(=O)Nc2ccc(-n3c(C)nc4c(cnn4-c4ccccc4)c3=O)cc2)cc1", "%", 32.8),
    ("Cc1nc2c(cnn2-c2ccccc2)c(=O)n1-c1ccc(N)cc1", "%", 18.5),
]

stdin: Look up and state reported inhibition of growth at 10 µM for Cc1nc2c(cnn2-c2ccccc2)c(=O)n1-c1ccc(NC(=O)c2ccccc2)cc1
stdout: 26.8

stdin: Look up and state reported inhibition of growth at 10 µM for CC(=O)Nc1ccc(-n2c(C)nc3c(cnn3-c3ccccc3)c2=O)cc1
stdout: 21.1

stdin: Look up and state reported inhibition of growth at 10 µM for COc1ccc(/C=C/C(=O)c2ccc(-n3c(C)nc4c(cnn4-c4ccccc4)c3=O)cc2)cc1
stdout: 56

stdin: Look up and state reported inhibition of growth at 10 µM for Cc1nc2c(cnn2-c2ccccc2)c(=O)n1-c1ccc(NC(=O)c2ccc([N+](=O)[O-])cc2)cc1
stdout: 34.1

stdin: Look up and state reported inhibition of growth at 10 µM for Cc1nc2c(cnn2-c2ccccc2)c(=O)n1-c1ccc(/N=C2\C(=O)Nc3ccccc32)cc1
stdout: 18.3

stdin: Look up and state reported inhibition of growth at 10 µM for Cc1nc2c(cnn2-c2ccccc2)c(=O)n1-c1ccc(NC(=O)c2ccc(Cl)cc2)cc1
stdout: 33.4
